- target-or-system: UniProt P42336
- assay-procedure: Enzymatic PI3K alpha isoform inhibition (lipid kinase activity, Kinase-Glo luminescence)
- settings: Enzymatic assay
property: IC50 (nM)

Use these answered entries as a reference point.
{"molecule": "COc1ncc(N2CCOc3ccc(O[C@H]4CCN(C(=O)C5CCS(=O)(=O)CC5)C4)cc32)cc1C#N", "IC50 / nM": 503}
{"molecule": "COc1ncc(N2CCOc3ccc(O[C@H]4CCN(C(=O)CC(C)(C)C)C4)cc32)cc1C#N", "IC50 / nM": 494}
{"molecule": "COc1ncc(N2CCOc3ccc(O[C@H]4CCN(C(=O)C5COCCO5)C4)cc32)cc1F (single isomer, unassigned) [Example H15]", "IC50 / nM": 724}

[P] COc1ccc(N2CCOc3ccc(O[C@H]4CCN(C(=O)CN5CCOCC5)C4)cc32)cn1 [Example D2]
[Q] COc1cc(N2CCOc3ccc(O[C@H]4CCN(C(=O)C5COCCO5)C4)cc32)cnc1OC (single isomer, unassigned) [Example H5]
Problem: Given P and Q , report the one with the higher recorded IC50. // output: label of the selected item
Solution: P
(P: 2740 nM, Q: 477 nM)

====

- target-or-system: PI3K delta (Homo sapiens (Human), UniProt O00329)
- Sequence (O00329 other isoform, or with tags, fused parts or gaps linker GGGGGG): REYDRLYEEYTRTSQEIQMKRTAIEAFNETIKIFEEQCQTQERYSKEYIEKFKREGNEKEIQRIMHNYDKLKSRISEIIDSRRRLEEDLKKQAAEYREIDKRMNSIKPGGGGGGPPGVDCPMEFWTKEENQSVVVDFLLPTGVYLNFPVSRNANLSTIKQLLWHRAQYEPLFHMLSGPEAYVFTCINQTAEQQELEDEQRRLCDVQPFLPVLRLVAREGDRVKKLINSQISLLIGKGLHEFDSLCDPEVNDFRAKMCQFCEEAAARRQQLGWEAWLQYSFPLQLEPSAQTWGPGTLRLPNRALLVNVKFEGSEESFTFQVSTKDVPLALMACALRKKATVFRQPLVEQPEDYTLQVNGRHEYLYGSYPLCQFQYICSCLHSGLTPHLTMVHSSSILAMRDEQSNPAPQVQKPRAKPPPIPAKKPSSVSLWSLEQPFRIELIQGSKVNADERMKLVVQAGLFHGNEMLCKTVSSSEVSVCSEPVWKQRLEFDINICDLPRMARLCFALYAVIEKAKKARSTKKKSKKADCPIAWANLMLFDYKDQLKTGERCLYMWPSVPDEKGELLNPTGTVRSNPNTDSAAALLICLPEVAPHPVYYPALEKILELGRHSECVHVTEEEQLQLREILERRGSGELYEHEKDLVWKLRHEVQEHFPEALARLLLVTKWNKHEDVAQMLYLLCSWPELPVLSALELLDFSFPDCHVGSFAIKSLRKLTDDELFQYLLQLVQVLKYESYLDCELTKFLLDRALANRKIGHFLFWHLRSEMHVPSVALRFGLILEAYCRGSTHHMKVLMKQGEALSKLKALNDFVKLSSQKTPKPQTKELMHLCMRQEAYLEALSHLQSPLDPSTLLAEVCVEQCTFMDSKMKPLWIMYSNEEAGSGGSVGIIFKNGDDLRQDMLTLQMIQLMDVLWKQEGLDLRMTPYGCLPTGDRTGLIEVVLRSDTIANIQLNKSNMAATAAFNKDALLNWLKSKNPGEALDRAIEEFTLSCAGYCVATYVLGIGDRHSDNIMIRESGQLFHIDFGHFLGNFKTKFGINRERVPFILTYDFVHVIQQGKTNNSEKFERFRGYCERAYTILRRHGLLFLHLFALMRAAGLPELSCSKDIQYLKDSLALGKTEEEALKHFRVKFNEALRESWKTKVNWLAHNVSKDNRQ
- assay-procedure: Enzymatic PI3K delta isoform inhibition (lipid kinase activity, Kinase-Glo luminescence)
- settings: Enzymatic assay
pIC50: −log10 of the molar value.
property: pIC50

Examples with answers:
{"smiles": "CCC(=O)N1CC[C@H](Oc2ccc3c(c2)N(c2cnc(S(C)(=O)=O)c(C)c2)CCO3)C1", "target-or-system": "PI3K delta (Homo sapiens (Human), UniProt O00329)", "pIC50": 7.67}
{"smiles": "CCC(=O)N1CC[C@H](Oc2ccc3c(c2)N(c2cnc4ccccc4c2)CCO3)C1", "target-or-system": "PI3K delta (Homo sapiens (Human), UniProt O00329)", "pIC50": 7.11}

[P] COc1ncc(N2CCOc3ccc(O[C@H]4CCN(C(=O)c5cocn5)C4)cc32)cc1C#N
[Q] CCC(=O)N1CC[C@H](Oc2ccc3c(c2)N(c2ccc(C)c(S(=O)(=O)N4CCCCC4)c2)CCO3)C1
[R] Cc1cc(N2CCOc3ccc(O[C@H]4CCN(C(=O)c5ccccc5)C4)cc32)cnc1S(C)(=O)=O
[S] COc1cncc(N2CCOc3ccc(O[C@H]4CCN(C(=O)C5CCOCC5)C4)cc32)c1
[T] COc1ncc(N2CCOc3cnc(O[C@H]4CCN(C(=O)C5CCOCC5)C4)cc32)cc1C(F)F
Problem: Order the records, beginning with the lowest pIC50 and ending with the highest. Could you list the labels in the order requested?
Solution: Q, S, R, P, T
(Q: 6.50, S: 7.07, R: 7.34, P: 7.72, T: 8.30)

====

- target-or-system: PI3K alpha (Homo sapiens (Human))
- Sequence (P42336 other isoform, or with tags, fused parts or gaps): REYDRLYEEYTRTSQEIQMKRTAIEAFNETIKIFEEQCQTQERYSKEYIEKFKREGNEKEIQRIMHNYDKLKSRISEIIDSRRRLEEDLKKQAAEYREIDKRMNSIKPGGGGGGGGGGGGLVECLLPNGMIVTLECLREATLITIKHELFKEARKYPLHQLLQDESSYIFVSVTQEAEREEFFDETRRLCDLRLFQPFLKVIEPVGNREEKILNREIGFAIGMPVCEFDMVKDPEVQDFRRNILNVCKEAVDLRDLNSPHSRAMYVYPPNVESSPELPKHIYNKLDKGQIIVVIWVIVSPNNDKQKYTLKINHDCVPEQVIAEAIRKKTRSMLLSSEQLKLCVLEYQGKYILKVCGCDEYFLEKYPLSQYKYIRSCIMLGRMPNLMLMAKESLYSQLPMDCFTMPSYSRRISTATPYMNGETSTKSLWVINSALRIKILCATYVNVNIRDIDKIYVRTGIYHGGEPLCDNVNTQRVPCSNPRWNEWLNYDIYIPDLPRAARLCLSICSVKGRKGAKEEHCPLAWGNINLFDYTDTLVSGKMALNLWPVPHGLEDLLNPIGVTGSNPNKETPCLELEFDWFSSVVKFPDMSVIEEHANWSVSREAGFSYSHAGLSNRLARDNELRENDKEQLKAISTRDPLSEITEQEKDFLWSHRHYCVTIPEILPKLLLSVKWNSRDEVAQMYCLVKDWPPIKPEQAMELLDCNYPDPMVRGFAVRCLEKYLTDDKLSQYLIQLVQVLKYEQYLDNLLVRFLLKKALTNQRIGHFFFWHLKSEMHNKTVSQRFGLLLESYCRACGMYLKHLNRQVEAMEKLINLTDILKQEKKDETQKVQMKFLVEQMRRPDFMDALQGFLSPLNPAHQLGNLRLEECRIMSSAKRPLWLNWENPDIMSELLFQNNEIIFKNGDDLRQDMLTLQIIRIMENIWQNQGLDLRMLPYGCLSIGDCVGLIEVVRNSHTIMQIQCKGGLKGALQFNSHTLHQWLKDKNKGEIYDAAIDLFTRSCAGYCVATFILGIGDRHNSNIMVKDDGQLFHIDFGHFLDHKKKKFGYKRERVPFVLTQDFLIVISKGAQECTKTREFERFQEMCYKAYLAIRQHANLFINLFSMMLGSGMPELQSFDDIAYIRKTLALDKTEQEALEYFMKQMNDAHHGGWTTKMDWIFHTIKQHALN
- assay-procedure: Enzymatic PI3K alpha isoform inhibition (lipid kinase activity, Kinase-Glo luminescence)
- settings: Enzymatic assay
property: IC50 (nM)

{"smiles": "COc1ncc(N2CCOc3ccc(O[C@H]4CCN(C(=O)c5cocn5)C4)cc32)cc1F", "target-or-system": "PI3K alpha (Homo sapiens (Human))", "unit": "nM", "IC50": 567}
{"smiles": "COc1cc(N2CCOc3ccc(O[C@H]4CCN(C(=O)c5ccc(=O)[nH]c5)C4)cc32)cnc1Cl", "target-or-system": "PI3K alpha (Homo sapiens (Human))", "unit": "nM", "IC50": 1520}

[1] CS(=O)(=O)c1ccc(N2CCOc3ccc(O[C@H]4CCN(C(=O)C5CCOCC5)C4)cc32)cn1
[2] COc1cc(N2CCOc3ccc(O[C@H]4CCN(C(=O)C5CCS(=O)(=O)CC5)C4)cc32)cnc1OC
[3] COc1cncc(N2CCOc3ccc(O[C@H]4CCN(C(=O)C5CCOCC5)C4)cc32)c1
[4] CCC(=O)N1CC[C@H](Oc2ccc3c(c2)N(c2cncc(S(=O)(=O)N4CCN(C)CC4)c2)CCO3)C1
Problem: Sort the compounds on IC50; start with the lowest figure. Write out the labels following the order that was asked for.
Solution: 2, 4, 3, 1
(2: 241 nM, 4: 531 nM, 3: 1700 nM, 1: 4690 nM)
